Value source: patent US9113629B2

Tested on: PHAMI: lesser canary grass (Phalaris minor)
measurement.description: Post-emergent Test III, herbicidal activity in wheat and barley
Type: in vivo
condition.parameters: Phalaris minor, post-emergence, 504 h; 70 g ai/ha; read-out: Visual Growth Reduction (%) 21 Days After Application PHAMI
What pest or weed control at 70 g/ha was measured for each of the following?

input: Under PHAMI: lesser canary grass (Phalaris minor), report pest or weed control at 70 g/ha for N#Cc1ccc(-c2nc(C(=O)O)c(Cl)c(N)c2F)cc1
output: 30 to 44%

input: Give the observed pest or weed control at 70 g/ha of COC(=O)c1nc(-c2ccc(Br)cc2)c(F)c(N)c1Cl for PHAMI: lesser canary grass (Phalaris minor).
output: 75 to 84%

input: GET pest or weed control at 70 g/ha | system: PHAMI: lesser canary grass (Phalaris minor) | item: COC(=O)c1nc(-c2ccc(I)cc2)c(F)c(N)c1Cl
output: 60 to 74%

input: Lab note: record pest or weed control at 70 g/ha of Nc1c(F)c(-c2ccc(Cl)c(F)c2)nc(C(=O)O)c1Cl tested on PHAMI: lesser canary grass (Phalaris minor).
output: 85 to 94%

input: # return pest or weed control at 70 g/ha of COC(=O)c1nc(-c2ccc(OC(F)F)cc2)c(F)c(N)c1Cl (system: PHAMI: lesser canary grass (Phalaris minor))
output: 0 to 29%

input: Give pest or weed control at 70 g/ha only, for COC(=O)c1nc(-c2ccc(Cl)c(F)c2)c(F)c(N)c1Cl , using PHAMI: lesser canary grass (Phalaris minor) data.
output: 30 to 44%
